Provenance of the data: PubChem BioAssay

- PROTOCOL_TEXT: blockers of RIG-like receptor reporter activation – cell-based, Sendai virus stimulus, luciferase, 10K MLSCN set, TLR/RLR signaling modifier project, primary screen (AID 602276);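 note: firefly luciferase from ISG56 promoter only with Renilla not read in this screen; 0% = Sendai virus plus DMSO and 100% = medium plus DMSO without virus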
- CONDITION_LABEL: HEK293 RL24 IRF3 luciferase reporter, at 10 µM, stronger effect = higher value
Where a SMILES comes first, the peptide text is derived from it. The star is where a group is joined. Boc = CC(C)(C)OC(=O)*
Listed here: items and their measured inhibition.

{"columns": ["COMPOUND", "inhibition (%)"],
 "data": [
  ["O=C(COc1ncnc2ccccc12)NCc1ccc2c(c1)OCO2", 15.1],
  ["O=C(NC(NC1CCS(=O)(=O)C1)C(=O)c1cccs1)c1ccccc1 (stereo not drawn)", 7.41],
  ["O=C(NCc1ccco1)c1cc2n(n1)C(C(F)(F)F)CC(c1ccc(F)cc1)N2 (stereo not drawn)", 3.11],
  ["CCC(=O)NC1(C(F)(F)F)C(=O)NC(C)=C1C#N (stereo not drawn)", 14.9],
  ["O=C(O)c1[nH]nc2c1COc1ccccc1-2", 14.5],
  ["COc1ccc(CNC(=O)c2cc(-c3ccc(OC)c(OC)c3)on2)cc1", 15.2],
  ["Cc1ccc(C)c(N2CCN(C(=O)C3CCN(S(=O)(=O)c4c(C)noc4C)CC3)CC2)c1", 11.3],
  ["CCOC(=O)CSc1nc2ccccc2c(=O)n1CCN1CCOCC1", -2.06],
  ["CN1CCCN(C(=O)c2cc(=O)[nH]c3ccccc23)c2nc3ccccc3nc21", 16.3],
  ["COC(=O)c1nc2n(n1)C(c1ccc(OC)c(OC)c1)C(C(=O)OC1CCCCC1)=C(C)N2 (stereo not drawn)", 4.26],
  ["CC(=O)Nc1nc(C)c(-c2csc(Nc3ccc(O)cc3)n2)s1", 20.1],
  ["CCCC(=O)Nc1ccc(OCC(=O)OC)cc1", 11],
  ["CCn1c2ccccc2c2cc(NC(=O)Cc3ccc(S(=O)(=O)N4CCOCC4)s3)ccc21", 25.9],
  ["CCOC(=O)c1cccc(NC(=O)Cn2cnc3c2c(=O)n(C)c(=O)n3C)c1", -6.03],
  ["COC(=O)c1cccc(NC(=O)NC2CCCN2S(=O)(=O)c2ccc(Cl)cc2)c1 (stereo not drawn)", 14],
  ["COc1ccccc1-c1noc(-c2cccnc2)n1", -24.5],
  ["CCCCn1nnnc1SCC(=O)Nc1cccc(C)n1", -10.8],
  ["Cc1ccc(CCNC(=O)Cn2cccc2)cc1", 12.9],
  ["COc1cccc(C(=O)CSc2nnc(COc3cccc4cccnc34)o2)c1", -8.03],
  ["Cc1ccc(S(=O)(=O)N(C)CC(=O)NC2CCCC2)cc1", 10.5],
  ["CCn1nnc(-c2ccccc2NC(=O)c2ccc(-n3cnnn3)cc2)n1", 15.3],
  ["CC(=O)OCC(=O)[C@@]1(O)CC[C@H]2[C@@H]3CCC4=CC(=O)C=C[C@]4(C)[C@H]3[C@@H](O)C[C@@]21C", -13.7],
  ["O=C(NC1(C(F)(F)F)NC(=O)N(Cc2ccco2)C1=O)c1cccnc1 (stereo not drawn)", 9.43],
  ["Cc1nn(-c2ccc(F)cc2)c2sc(C(=O)OCC(=O)N3CCC(C)CC3)cc12", -2.34],
  ["O=C(O)C1C2CCC(O2)C1C(=O)Nc1cccc(F)c1 (stereo not drawn)", 20.3],
  ["O=C1c2oc3ccccc3c(=O)c2C(c2ccccn2)N1Cc1ccccc1 (stereo not drawn)", -16.4],
  ["CC1(C)CC(=O)C2=C(C1)N(Cc1ccco1)C(=O)C2(NC(=O)C1CCCCC1)C(F)(F)F (stereo not drawn)", 16.7],
  ["O=C(Cn1ccc2ccccc2c1=O)NCCC(=O)N1CCN(C2CCCCC2)CC1", 9.9],
  ["O=C(CN1C(=O)NC2(CCCCCC2)C1=O)N1CCC(Cc2ccccc2)CC1", 0.617],
  ["O=c1[nH]c(=O)n([C@H]2C[C@H](O)[C@@H](CO)O2)cc1F", -38.5],
  ["Cc1cc2c(c(=O)n1CCN(C)C)C(c1ccncc1)C(C#N)=C(N)O2 (stereo not drawn)", 5.86],
  ["COCn1c(COc2ccccc2)nc2ccccc21", -20.6],
  ["CC(C)CC(NC(=O)OC(C)(C)C)C(=O)NC(C(=O)NC(C)C(N)=O)C(C)C (stereo not drawn) (Boc-Leu-Val-Ala-NH2; configuration not given here)", -9.68],
  ["CCCn1c(N2CCN(CC(=O)Nc3ccc4c(c3)OCCO4)CC2)nc2ccccc21", 4.25],
  ["Cc1nc(CNS(=O)(=O)c2ccc3c(c2)OCCO3)cs1", -8.22],
  ["Cc1ccc(S(=O)(=O)N2CCCC2)cc1S(=O)(=O)N1CCCC1", 13.4],
  ["CNC(=O)CN(C#N)c1nc(N(C)C)nc(N(C)C)n1", 6.17],
  ["Cc1cc(=O)[nH]c2c1cnn2Cc1ccccc1", 13.7],
  ["CC(C)(C)C1=C[C@@H](CO)C[C@@H](CO)C1", 10.7],
  ["Nc1cc(C(=O)O)ccc1Nc1ccccc1", -4.17],
  ["COc1nc2ccc(C)cc2cc1-c1noc(-c2cccnc2)n1", 6.17],
  ["CCOc1cc2[nH]c(=O)n(CCCCC(=O)N3CCCCCC3)c(=O)c2cc1OCC", 14.3],
  ["CCCn1c(SCC(=O)Nc2cc(C)on2)nc2c1c(=O)n(C)c(=O)n2C", -5.89]
]}
